Values from PubChem BioAssay (NCI)

System: U251 CNS
Experiment: NCI-60 one-dose screen, 48 h
Settings: 10 µM unless noted
Compounds without any hit were thinned out: in the full panel of roughly 83,000, 20% have a hit. Active and inactive are the calls of the source. Rule for the calls: active = growth percent below 10; inactive = the rest.
Could you please pick one outcome from this set? yes (1) (active), no (0) (inactive)

Answered examples (8):
O=C(COC(=O)[C@H](C[Se][Se]C[C@H](NC(=O)c1ccc(Br)cc1F)C(=O)OCC(=O)c1ccc(F)cc1)NC(=O)c1ccc(Br)cc1F)c1ccc(F)cc1 ... yes (1)
C=C(C)[C@H]1CC/C(C)=C/CC[C@]2(C)O[C@H]2CC/C(COC(C)=O)=C\C1=O ... no (0)
Cn1cc(-c2nc(-c3c[nH]c4ncccc34)cs2)c2cccnc21 ... no (0)
C=C(C)[C@@H]1C/C=C(/C=O)CC[C@@H]2O[C@@]2(C)CC/C=C(\C)CC1 ... no (0)
O=C1C(=O)c2ccc(Br)cc2-c2cc(Br)ccc21 ... yes (1)
O=[N+]([O-])c1cnc(Sc2ccncn2)c([N+](=O)[O-])c1 ... no (0)
COc1ccc(/C(=C2\O[C@@H]([C@H](O)CO)[C@H]3OC(C)(C)O[C@@H]23)c2cc(OC)c(OC)c(OC)c2)cc1O ... no (0)
CCCOc1ccc2c(c1)CC[C@@H]1[C@@H]2CC[C@@]2(C)[C@H]1CC[C@]2(C)O ... no (0)

q: Given `CC[C@H](C)C(=O)O[C@H]1C[C@@H](C)C=C2C=C[C@H](C)[C@H](CC[C@@H]3C[C@@H](O)CC(=O)O3)[C@H]21` , state the outcome it received in this test.
a: no (0)

q: Given `Cc1ccccc1NC(=O)c1cc2ccccc2cc1O` , state the outcome it received in this test.
a: no (0)

q: Given `CC[C@@H]1OC(=O)[C@H](C)[C@@H](O[C@H]2C[C@@](C)(OC)[C@@H](O)[C@H](C)O2)[C@H](C)[C@@H](O[C@@H]2O[C@H](C)C[C@H](N(C)C)[C@H]2O)[C@](C)(O)C[C@@H](C)[C@@H]2N[C@@H](COCCOC)O[C@H]([C@H]2C)[C@]1(C)O` , state the outcome it received in this test.
a: no (0)

q: Given `COc1ccc2c(c1)/C(=C\c1c[nH]c3ccc(F)cc13)C(=O)N2` , state the outcome it received in this test.
a: no (0)

q: Given `O=C1/C(=C/c2ccc([N+](=O)[O-])s2)Oc2ccc(Br)cc21` , state the outcome it received in this test.
a: yes (1)

----------
Tested on: CAKI-1 renal
Experiment: NCI-60 one-dose screen, 48 h (100 = growth as untreated, 0 = no growth, -100 = all killed)
Conditions: 10 µM unless noted
About 83,000 compounds went through this panel and 20% of them were active in at least one assay; those are over-represented in the sample as a whole.
Entries and their measured growth follow.
The response must be a number in % with no trailing unit.

CCC(CCC(C)C1CCC2C3CC=C4CC(O)CCC4(C)C3CCC12C)C(C)C (stereo not drawn) (tested in a mixture with another compound) ... 108
COc1cc([C@@H]2c3cc4c(cc3C(O[C@@H]3O[C@@H]5CO[C@@H](c6cccs6)OC5[C@H](O)[C@H]3O)C3COC(=O)[C@@H]32)OCO4)cc(OC)c1O (stereo partly drawn) ... -10.3
Cc1cc(C)n2nc(SCC(=O)Nc3sc4c(c3C(N)=O)CCC4)nc2n1 ... 94.7
C/C(=C\CCc1ccoc1)CC/C=C(\C)CCCN1CCC(CO)CC1 ... 82.7
Nc1c2ccccc2nc2ccccc12 (tested in a mixture with another compound) ... 20.2

q: GET /values?readout=growth&item= `C=CCCCCCCCCC(=O)[O][Sn]([CH2]CCC)([CH2]CCC)[CH2]CCC`
a: -89.4

q: GET /values?readout=growth&item= `CCN1C(=O)c2ccc3c4c(ccc(c24)C1=O)C(=O)N(CCCNCc1ccccc1OC)C3=O`
a: -11.4

q: GET /values?readout=growth&item= `COC(=O)CC1=C(C)/C(=C/c2[nH]c(-c3ccc[nH]3)cc2OC)N=C1C`
a: 8.04
